Taken from ChEMBL document CHEMBL4043287.

Some compounds, each annotated with its measured Emax.
# EXPERIMENTAL_TARGET: Adenosine receptor A1 (Homo sapiens)
# ASSAY_PROCEDURE: Agonist activity at human A1AR expressed in FlpIn-CHO cells assessed as intracellular calcium mobilization by Fluo-4 dye-based fluorescence assay relative to control
# Format: cell-based

COMPOUND_STRUCTURE | Emax (%)
CC(=O)Nc1sc(-c2ccc(C(=O)NCCCCCCNc3ncnc4c3ncn4[C@@H]3O[C@H](CO)[C@@H](O)[C@H]3O)cc2)c(-c2cccc(C(F)(F)F)c2)c1C(=O)c1ccccc1 | 20
Nc1sc(-c2ccc(C(=O)NCCCCCCCNc3ncnc4c3ncn4[C@@H]3O[C@H](CO)[C@@H](O)[C@H]3O)cc2)c(-c2cccc(C(F)(F)F)c2)c1C(=O)c1ccccc1 | 28
O=C(NCCCCCCNc1ncnc2c1ncn2[C@@H]1O[C@H](CO)[C@@H](O)[C@H]1O)c1ccc(-c2scc(C(=O)c3ccccc3)c2-c2cccc(C(F)(F)F)c2)cc1 | 40
Nc1ccc(-c2cccc(C(=O)NCCCCCCNc3ncnc4c3ncn4[C@@H]3O[C@H](CO)[C@@H](O)[C@H]3O)c2)s1 | 47

====

Some compounds, each annotated with its measured EC50.
# EXPERIMENTAL_TARGET: Adenosine receptor A2a (Homo sapiens, UniProt P29274)
# Sequence (P29274 whole entry): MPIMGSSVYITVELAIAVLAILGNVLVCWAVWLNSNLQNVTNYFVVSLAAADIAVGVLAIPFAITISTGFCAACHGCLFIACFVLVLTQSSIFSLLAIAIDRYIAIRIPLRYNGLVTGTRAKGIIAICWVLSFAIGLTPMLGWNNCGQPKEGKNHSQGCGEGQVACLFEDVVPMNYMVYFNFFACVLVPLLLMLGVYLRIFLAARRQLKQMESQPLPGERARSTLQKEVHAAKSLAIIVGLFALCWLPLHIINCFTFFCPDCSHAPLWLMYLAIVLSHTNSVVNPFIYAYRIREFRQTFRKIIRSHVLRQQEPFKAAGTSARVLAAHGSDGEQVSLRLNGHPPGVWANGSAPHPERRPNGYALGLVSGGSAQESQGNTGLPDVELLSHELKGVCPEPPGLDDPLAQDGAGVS
# ASSAY_PROCEDURE: Agonist activity at human A2A-AR expressed in FlpIn-CHO cells assessed as inhibition of forskolin-stimulated cAMP accumulation preincubated for 40 mins followed by forskolin addition measured after 30 mins by Alphascreen assay

COMPOUND_STRUCTURE | EXPERIMENTAL_TARGET | EC50
Nc1nc(NCCCCCCNC(=O)c2ccc(-c3sc(N)c(C(=O)c4ccccc4)c3-c3cccc(C(F)(F)F)c3)cc2)c2ncn([C@@H]3O[C@H](CO)[C@@H](O)[C@H]3O)c2n1 | Adenosine receptor A2a (Homo sapiens, UniProt P29274) | 759 nM
CC(=O)Nc1sc(-c2ccc(C(=O)NCCCCCCNc3ncnc4c3ncn4[C@@H]3O[C@H](CO)[C@@H](O)[C@H]3O)cc2)c(-c2cccc(C(F)(F)F)c2)c1C(=O)c1ccccc1 | Adenosine receptor A2a (Homo sapiens, UniProt P29274) | 2340 nM
Nc1sc(-c2ccc(C(=O)NCCCCCCCNc3ncnc4c3ncn4[C@@H]3O[C@H](CO)[C@@H](O)[C@H]3O)cc2)c(-c2cccc(C(F)(F)F)c2)c1C(=O)c1ccccc1 | Adenosine receptor A2a (Homo sapiens, UniProt P29274) | 4900 nM

====

Some molecules, each annotated with its measured Emax.
# EXPERIMENTAL_TARGET: Adenosine receptor A2b (Homo sapiens) (UniProt P29275)
# Sequence (P29275 whole entry): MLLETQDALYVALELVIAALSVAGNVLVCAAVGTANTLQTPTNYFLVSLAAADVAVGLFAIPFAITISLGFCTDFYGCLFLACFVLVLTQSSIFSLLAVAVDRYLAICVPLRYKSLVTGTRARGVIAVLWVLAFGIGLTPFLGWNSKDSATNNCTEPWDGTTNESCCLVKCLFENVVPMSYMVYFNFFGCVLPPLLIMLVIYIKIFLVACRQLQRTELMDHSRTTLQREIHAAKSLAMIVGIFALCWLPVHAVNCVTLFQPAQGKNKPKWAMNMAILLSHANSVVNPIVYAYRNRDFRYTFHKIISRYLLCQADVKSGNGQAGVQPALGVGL
# ASSAY_PROCEDURE: Agonist activity at human A2BAR expressed in FlpIn-CHO cells assessed as […] cAMP accumulation preincubated for 40 mins followed by forskolin addition measured after 30 mins by Alphascreen assay relative to control
# Format: functional, cell-based

COMPOUND_STRUCTURE | UNIT | Emax
Nc1cc(-c2cccc(C(F)(F)F)c2)c(-c2ccc(C(=O)NCCCCCCNc3ncnc4c3ncn4[C@@H]3O[C@H](CO)[C@@H](O)[C@H]3O)cc2)s1 | % | 28
CC(=O)Nc1sc(-c2ccc(C(=O)NCCCCCCNc3ncnc4c3ncn4[C@@H]3O[C@H](CO)[C@@H](O)[C@H]3O)cc2)c(-c2cccc(C(F)(F)F)c2)c1C(=O)c1ccccc1 | % | 44
Nc1sc(-c2ccc(C(=O)NCCCCCNc3ncnc4c3ncn4[C@@H]3O[C@H](CO)[C@@H](O)[C@H]3O)cc2)c(-c2cccc(C(F)(F)F)c2)c1C(=O)c1ccccc1 | % | 52

====

# EXPERIMENTAL_TARGET: Adenosine receptor A1 (Homo sapiens, UniProt P30542)
# Sequence (P30542 whole entry): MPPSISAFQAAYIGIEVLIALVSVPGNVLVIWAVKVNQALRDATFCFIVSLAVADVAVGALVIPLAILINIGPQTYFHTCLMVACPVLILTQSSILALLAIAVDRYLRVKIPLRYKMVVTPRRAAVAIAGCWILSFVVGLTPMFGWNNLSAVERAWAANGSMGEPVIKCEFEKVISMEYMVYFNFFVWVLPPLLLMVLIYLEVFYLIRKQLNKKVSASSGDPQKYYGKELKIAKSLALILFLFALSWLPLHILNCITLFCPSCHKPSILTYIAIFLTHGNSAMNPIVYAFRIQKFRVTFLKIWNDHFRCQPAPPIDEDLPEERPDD
# ASSAY_PROCEDURE: Agonist activity at human A1AR expressed in FlpIn-CHO cells assessed as intracellular calcium mobilization by Fluo-4 dye-based fluorescence assay
# Format: cell-based
ENDPOINT: EC50 (nM)

COMPOUND_STRUCTURE | EXPERIMENTAL_TARGET | ENDPOINT | UNIT | DATA_VALUE
O=C(NCCCCCCNc1ncnc2c1ncn2[C@@H]1O[C@H](CO)[C@@H](O)[C@H]1O)c1ccc(-c2scc(C(=O)c3ccccc3)c2-c2cccc(C(F)(F)F)c2)cc1 | Adenosine receptor A1 (Homo sapiens, UniProt P30542) | EC50 | nM | 562
O=C(NCCCCCCNc1ncnc2c1ncn2[C@@H]1O[C@H](CO)[C@@H](O)[C@H]1O)c1cccc(-c2cc(C(=O)c3ccccc3)cs2)c1 | Adenosine receptor A1 (Homo sapiens, UniProt P30542) | EC50 | nM | 87.1
Nc1sc(-c2cccc(C(=O)NCCCCCCNc3ncnc4c3ncn4[C@@H]3O[C@H](CO)[C@@H](O)[C@H]3O)c2)c(-c2cccc(C(F)(F)F)c2)c1C(=O)c1ccccc1 | Adenosine receptor A1 (Homo sapiens, UniProt P30542) | EC50 | nM | 93.3

====

# EXPERIMENTAL_TARGET: Adenosine receptor A1 (Homo sapiens, UniProt P30542)
# ASSAY_PROCEDURE: Agonist activity at human A1AR expressed in FlpIn-CHO cells assessed as intracellular calcium mobilization by measuring agonist transduction coefficient by Fluo-4 dye-based fluorescence assay
# Type: cell-based
ENDPOINT: log(activity)

COMPOUND_STRUCTURE | EXPERIMENTAL_TARGET | DATA_VALUE
Nc1ccc(-c2cccc(C(=O)NCCCCCCNc3ncnc4c3ncn4[C@@H]3O[C@H](CO)[C@@H](O)[C@H]3O)c2)s1 | Adenosine receptor A1 (Homo sapiens, UniProt P30542) | 7.4
Nc1sc(-c2ccc(C(=O)NCCCCCNc3ncnc4c3ncn4[C@@H]3O[C@H](CO)[C@@H](O)[C@H]3O)cc2)c(-c2cccc(C(F)(F)F)c2)c1C(=O)c1ccccc1 | Adenosine receptor A1 (Homo sapiens, UniProt P30542) | 6.11
O=C(NCCCCCCNc1ncnc2c1ncn2[C@@H]1O[C@H](CO)[C@@H](O)[C@H]1O)c1ccc(-c2sccc2-c2cccc(C(F)(F)F)c2)cc1 | Adenosine receptor A1 (Homo sapiens, UniProt P30542) | 7.03
Nc1sc(-c2ccc(C(=O)NCCCCCCNc3ncnc4c3ncn4[C@@H]3O[C@H](CO)[C@@H](O)[C@H]3O)cc2)cc1C(=O)c1ccccc1 | Adenosine receptor A1 (Homo sapiens, UniProt P30542) | 7.43
Nc1sc(-c2ccccc2C(=O)NCCCCCCNc2ncnc3c2ncn3[C@@H]2O[C@H](CO)[C@@H](O)[C@H]2O)c(-c2cccc(C(F)(F)F)c2)c1C(=O)c1ccccc1 | Adenosine receptor A1 (Homo sapiens, UniProt P30542) | 5.74
Nc1nc(NCCCCCCNC(=O)c2ccc(-c3sc(N)c(C(=O)c4ccccc4)c3-c3cccc(C(F)(F)F)c3)cc2)c2ncn([C@@H]3O[C@H](CO)[C@@H](O)[C@H]3O)c2n1 | Adenosine receptor A1 (Homo sapiens, UniProt P30542) | 6.15
CC(=O)Nc1sc(-c2ccc(C(=O)NCCCCCCNc3ncnc4c3ncn4[C@@H]3O[C@H](CO)[C@@H](O)[C@H]3O)cc2)c(-c2cccc(C(F)(F)F)c2)c1C(=O)c1ccccc1 | Adenosine receptor A1 (Homo sapiens, UniProt P30542) | 5.02
Nc1sc(-c2ccc(C(=O)NCCCCCCCNc3ncnc4c3ncn4[C@@H]3O[C@H](CO)[C@@H](O)[C@H]3O)cc2)c(-c2cccc(C(F)(F)F)c2)c1C(=O)c1ccccc1 | Adenosine receptor A1 (Homo sapiens, UniProt P30542) | 5.58
Nc1sc(-c2cccc(C(=O)NCCCCCCNc3ncnc4c3ncn4[C@@H]3O[C@H](CO)[C@@H](O)[C@H]3O)c2)c(-c2cccc(C(F)(F)F)c2)c1C(=O)c1ccccc1 | Adenosine receptor A1 (Homo sapiens, UniProt P30542) | 6.98

====

# EXPERIMENTAL_TARGET: Adenosine receptor A3 (Homo sapiens)
# ASSAY_PROCEDURE: Agonist activity at human A3AR expressed in FlpIn-CHO cells assessed as inhibition of forskolin-stimulated cAMP accumulation preincubated for 10 mins followed by forskolin addition measured after 30 mins by Alphascreen assay relative to control
# Type: functional, cell-based
Some molecules, each annotated with its measured Emax.

COMPOUND_STRUCTURE | Emax (%)
Nc1sc(-c2ccccc2C(=O)NCCCCCCNc2ncnc3c2ncn3[C@@H]2O[C@H](CO)[C@@H](O)[C@H]2O)c(-c2cccc(C(F)(F)F)c2)c1C(=O)c1ccccc1 | 103
O=C(NCCCCCCNc1ncnc2c1ncn2[C@@H]1O[C@H](CO)[C@@H](O)[C@H]1O)c1ccc(-c2sccc2-c2cccc(C(F)(F)F)c2)cc1 | 26
Nc1ccc(-c2cccc(C(=O)NCCCCCCNc3ncnc4c3ncn4[C@@H]3O[C@H](CO)[C@@H](O)[C@H]3O)c2)s1 | 72

====

# EXPERIMENTAL_TARGET: UniProtKB P30542
# ASSAY_PROCEDURE: Agonist activity at human A1AR expressed in FlpIn-CHO cells assessed as intracellular calcium mobilization by Fluo-4 dye-based fluorescence assay
# Format: cell-based
Some compounds, each annotated with its measured EC50.
ENDPOINT: EC50

COMPOUND_STRUCTURE | ENDPOINT | DATA_VALUE
Nc1sc(-c2ccc(C(=O)NCCCCCCCNc3ncnc4c3ncn4[C@@H]3O[C@H](CO)[C@@H](O)[C@H]3O)cc2)c(-c2cccc(C(F)(F)F)c2)c1C(=O)c1ccccc1 | EC50 | 200 nM
Nc1sc(-c2ccc(C(=O)NCCCCCCNc3nc(Cl)nc4c3ncn4[C@@H]3O[C@H](CO)[C@@H](O)[C@H]3O)cc2)c(-c2cccc(C(F)(F)F)c2)c1C(=O)c1ccccc1 | EC50 | 135 nM
Nc1sc(-c2ccc(C(=O)NCCCCCNc3ncnc4c3ncn4[C@@H]3O[C@H](CO)[C@@H](O)[C@H]3O)cc2)c(-c2cccc(C(F)(F)F)c2)c1C(=O)c1ccccc1 | EC50 | 74.1 nM
CC(=O)Nc1sc(-c2ccc(C(=O)NCCCCCCNc3ncnc4c3ncn4[C@@H]3O[C@H](CO)[C@@H](O)[C@H]3O)cc2)c(-c2cccc(C(F)(F)F)c2)c1C(=O)c1ccccc1 | EC50 | 891 nM
Nc1cc(-c2cccc(C(F)(F)F)c2)c(-c2ccc(C(=O)NCCCCCCNc3ncnc4c3ncn4[C@@H]3O[C@H](CO)[C@@H](O)[C@H]3O)cc2)s1 | EC50 | 110 nM
O=C(NCCCCCCNc1ncnc2c1ncn2[C@@H]1O[C@H](CO)[C@@H](O)[C@H]1O)c1cccc(-c2cccs2)c1 | EC50 | 35.5 nM
CCNC(=O)[C@H]1O[C@@H](n2cnc3c(NCCCCCCNC(=O)c4ccc(-c5sc(N)c(C(=O)c6ccccc6)c5-c5cccc(C(F)(F)F)c5)cc4)ncnc32)[C@H](O)[C@@H]1O | EC50 | 56.2 nM
Nc1sc(-c2ccc(C(=O)NCCCCCCNc3ncnc4c3ncn4[C@@H]3O[C@H](CO)[C@@H](O)[C@H]3O)cc2)cc1C(=O)c1ccccc1 | EC50 | 29.5 nM
O=C(NCCCCCCNc1ncnc2c1ncn2[C@@H]1O[C@H](CO)[C@@H](O)[C@H]1O)c1ccc(-c2sccc2-c2cccc(C(F)(F)F)c2)cc1 | EC50 | 77.6 nM
Nc1sc(-c2ccccc2C(=O)NCCCCCCNc2ncnc3c2ncn3[C@@H]2O[C@H](CO)[C@@H](O)[C@H]2O)c(-c2cccc(C(F)(F)F)c2)c1C(=O)c1ccccc1 | EC50 | 1350 nM
Nc1ccc(-c2cccc(C(=O)NCCCCCCNc3ncnc4c3ncn4[C@@H]3O[C@H](CO)[C@@H](O)[C@H]3O)c2)s1 | EC50 | 34.7 nM
Nc1nc(NCCCCCCNC(=O)c2ccc(-c3sc(N)c(C(=O)c4ccccc4)c3-c3cccc(C(F)(F)F)c3)cc2)c2ncn([C@@H]3O[C@H](CO)[C@@H](O)[C@H]3O)c2n1 | EC50 | 257 nM
